# credit: patent US20100075370A1

Kindly state LC90 for each of the entries shown.
Test system: pBMC from patients with CLL
Test: Cytotoxicity of several antineoplastic agents on pBMC (LC90), fixed volume flow cytometry
Type: cell-based, human
Details: pBMC of CLL patient #12, ex vivo; in µg/mL
// keep it numeric: no unit symbol after the value

// sample O=C1c2c(O)ccc(O)c2C(=O)c2c(NCCNCCO)ccc(NCCNCCO)c21 , its LC90 was 0.06

// sample Nc1nc(F)nc2c1ncn2[C@@H]1O[C@H](COP(=O)(O)O)[C@@H](O)[C@@H]1O [Fludarabine phosphate] , its LC90 was 0.33

// sample C[C@]12C=CC(=O)C=C1CC[C@@H]1[C@@H]2[C@@H](O)C[C@@]2(C)[C@H]1CC[C@]2(O)C(=O)CO , its LC90 was 0.86

// sample CC[C@]1(O)C[C@H]2CN(CCc3c([nH]c4ccccc34)[C@@](C(=O)OC)(c3cc4c(cc3OC)N(C=O)[C@H]3[C@@](O)(C(=O)OC)[C@H](OC(C)=O)[C@]5(CC)C=CCN6CC[C@]43[C@@H]65)C2)C1 , its LC90 was 0.97

// sample Nc1nc(Cl)nc2c1ncn2[C@H]1C[C@H](O)[C@@H](CO)O1 , its LC90 was 0.040

---

Kindly state LC90 for each of the entries shown.
Tested on: pBMC from patients with CLL
Experiment: Cytotoxicity of several antineoplastic agents on pBMC (LC90), fixed volume flow cytometry
Assay type: cell-based, human
Settings: pBMC of CLL patient #11, ex vivo; in µg/mL
// keep it numeric: no unit symbol after the value

Entry Nc1nc(Cl)nc2c1ncn2[C@H]1C[C@H](O)[C@@H](CO)O1 under pBMC from patients with CLL had LC90 of 0.047

Entry Nc1nc(F)nc2c1ncn2[C@@H]1O[C@H](COP(=O)(O)O)[C@@H](O)[C@@H]1O [Fludarabine phosphate] under pBMC from patients with CLL had LC90 of 2.15

Entry C[C@]12C=CC(=O)C=C1CC[C@@H]1[C@@H]2[C@@H](O)C[C@@]2(C)[C@H]1CC[C@]2(O)C(=O)CO under pBMC from patients with CLL had LC90 of 0.46

Entry O=C1c2c(O)ccc(O)c2C(=O)c2c(NCCNCCO)ccc(NCCNCCO)c21 under pBMC from patients with CLL had LC90 of 12.80

Entry CC[C@]1(O)C[C@H]2CN(CCc3c([nH]c4ccccc34)[C@@](C(=O)OC)(c3cc4c(cc3OC)N(C=O)[C@H]3[C@@](O)(C(=O)OC)[C@H](OC(C)=O)[C@]5(CC)C=CCN6CC[C@]43[C@@H]65)C2)C1 under pBMC from patients with CLL had LC90 of 0.21

---

System: pBMC from patients with CLL
Test: Cytotoxicity of several antineoplastic agents on pBMC (LC90), fixed volume flow cytometry
Format: cell-based, human
Conditions: pBMC of CLL patient #1, ex vivo; in µg/mL
Lab note: compare LC90 with 3, writing Criterion met if less and Criterion not met if equal or more.

Input: Consider the compound C[C@]12C=CC(=O)C=C1CC[C@@H]1[C@@H]2[C@@H](O)C[C@@]2(C)[C@H]1CC[C@]2(O)C(=O)CO . Is its LC90 strictly less than 3?
Output: Criterion not met

Input: Consider the compound O=C1c2c(O)ccc(O)c2C(=O)c2c(NCCNCCO)ccc(NCCNCCO)c21 . Is its LC90 strictly less than 3?
Output: Criterion met

Input: Consider the compound Nc1nc(F)nc2c1ncn2[C@@H]1O[C@H](COP(=O)(O)O)[C@@H](O)[C@@H]1O [Fludarabine phosphate] . Is its LC90 strictly less than 3?
Output: Criterion not met

Input: Consider the compound Nc1nc(Cl)nc2c1ncn2[C@H]1C[C@H](O)[C@@H](CO)O1 . Is its LC90 strictly less than 3?
Output: Criterion met

Input: Consider the compound CC[C@]1(O)C[C@H]2CN(CCc3c([nH]c4ccccc34)[C@@](C(=O)OC)(c3cc4c(cc3OC)N(C=O)[C@H]3[C@@](O)(C(=O)OC)[C@H](OC(C)=O)[C@]5(CC)C=CCN6CC[C@]43[C@@H]65)C2)C1 . Is its LC90 strictly less than 3?
Output: Criterion met
